Assay: Stability of proteinase inhibitors in water
Readout: stability in water

molecule=CCCC[C@@H](C=O)NC(=O)[C@H](CC(C)C)NC(=O)OCc1ccccc1 readout="stability in water" value_observed=good
molecule=CC(C)C[C@H](NC(=O)N[C@H](C(=O)N[C@@H](CCC(N)=O)C(=O)N[C@@H](C)C=O)[C@@H]1CCNC(=N)N1)C(=O)O readout="stability in water" value_observed=good
molecule="CCOC(=O)[C@@H]1O[C@H]1C(=O)NC(CC(C)C)C(=O)N1CCN(Cc2ccc(OC)c(OC)c2OC)CC1.CCOC(=O)[C@@H]1O[C@H]1C(=O)NC(CC(C)C)C(=O)N1CCN(Cc2ccc(OC)c(OC)c2OC)CC1.O=S(=O)(O)O (stereo partly shown)" readout="stability in water" value_observed=poor
molecule=CC(C)C[C@H](NC(=O)[C@@H](O)[C@H](N)Cc1ccccc1)C(=O)O readout="stability in water" value_observed=good

---

Experiment: Stability of proteinase inhibitors in water
Readout: stability in water

Please review the entries below; each comes with its answer.
molecule=CC(C)C[C@H](NC(=O)[C@H]1O[C@@H]1C(=O)O)C(=O)NCCCCN=C(N)N value_observed=good
molecule=N=C(N)c1ccccc1 value_observed=good
molecule=CC(=O)N[C@@H](CC(C)C)C(=O)N[C@@H](CC(C)C)C(=O)N[C@H](C=O)CCCNC(=N)N value_observed=good
molecule=c1cnc2c(c1)ccc1cccnc12 value_observed=poor

Summary for this compound, CCOC(=O)[C@H]1O[C@@H]1C(=O)N[C@@H](CC(C)C)C(=O)NCCC(C)C : stability in water is poor

---

Experiment: Solubility of proteinase inhibitors in water
Readout: Solubility in water

molecule="CCOC(=O)[C@H]1O[C@@H]1C(=O)N[C@@H](CC(C)C)C(=O)NCCC(C)C [EST]" readout="Solubility in water" value_observed=bad
molecule="CC(C)C[C@H](NC(=O)[C@@H](O)[C@H](N)Cc1ccccc1)C(=O)O [Bestatin]" readout="Solubility in water" value_observed=good
molecule="c1cnc2c(c1)ccc1cccnc12 [o-Phenanthroline]" readout="Solubility in water" value_observed=bad
molecule="N=C(N)c1ccccc1 [Benzamidine]" readout="Solubility in water" value_observed=good
molecule="CC(C)C[C@H](NC(=O)[C@H]1O[C@@H]1C(=O)O)C(=O)NCCCCN=C(N)N [E-64]" readout="Solubility in water" value_observed=good

Next:
Lab book: Solubility in water of CC(=O)N[C@@H](CC(C)C)C(=O)N[C@@H](CC(C)C)C(=O)N[C@H](C=O)CCCNC(=N)N [Leupeptin] noted as good

---

Experiment: Solubility of proteinase inhibitors in water
Readout: Solubility in water

compound="CCOC(=O)[C@@H]1O[C@H]1C(=O)NC(CC(C)C)C(=O)N1CCN(Cc2ccc(OC)c(OC)c2OC)CC1.CCOC(=O)[C@@H]1O[C@H]1C(=O)NC(CC(C)C)C(=O)N1CCN(Cc2ccc(OC)c(OC)c2OC)CC1.O=S(=O)(O)O (stereo partly drawn) [NCO-700]" value_observed=poor
compound="CC(C)C[C@H](NC(=O)N[C@H](C(=O)N[C@@H](CCC(N)=O)C(=O)N[C@@H](C)C=O)[C@@H]1CCNC(=N)N1)C(=O)O [Elastatinal]" value_observed=poor
compound="CCCC[C@@H](C=O)NC(=O)[C@H](CC(C)C)NC(=O)OCc1ccccc1 [Calpeptin]" value_observed=good

---

Tested on: p16^INK4a
Test: Stabilization of p16INK4a by proteinase inhibitors in mtm lysis medium
Settings: inhibitor at the concentration listed in Table 2
Where a SMILES comes first, the peptide text is derived from it. [ ]: non-standard residue; d: D form. The star is where a group is joined. Sta = CC(C)C[C@H](N)[C@@H](O)CC(=O)O; Isovaleryl = CC(C)CC(=O)*
Readout: p16^INK4a stabilization in mtm Lysis medium

Some entries whose results are on file:
molecule="CCOC(=O)[C@H]1O[C@@H]1C(=O)N[C@@H](CC(C)C)C(=O)NCCC(C)C [EST]" value_observed=no
molecule="CC(=O)N[C@@H](CC(C)C)C(=O)N[C@@H](CC(C)C)C(=O)N[C@H](C=O)CCCNC(=N)N [Leupeptin]" value_observed=no
molecule="CC(C)C[C@H](NC(=O)[C@@H](O)[C@H](N)Cc1ccccc1)C(=O)O [Bestatin]" value_observed=no
molecule="O=S(=O)(F)Cc1ccccc1 [PMSF]" value_observed=yes
molecule="N=C(N)c1ccccc1 [Benzamidine]" value_observed=no
molecule="CC(C)C[C@H](NC(=O)N[C@H](C(=O)N[C@@H](CCC(N)=O)C(=O)N[C@@H](C)C=O)[C@@H]1CCNC(=N)N1)C(=O)O [Elastatinal]" value_observed=no
molecule="CC(C)CC(=O)N[C@H](C(=O)N[C@H](C(=O)N[C@@H](CC(C)C)[C@@H](O)CC(=O)N[C@@H](C)C(=O)N[C@@H](CC(C)C)[C@@H](O)CC(=O)O)C(C)C)C(C)C [Pepstatin A] (Isovaleryl-VV[Sta]A[Sta]-OH)" value_observed=no
molecule="c1cnc2c(c1)ccc1cccnc12 [o-Phenanthroline]" value_observed=no
molecule="CCCC[C@@H](C=O)NC(=O)[C@H](CC(C)C)NC(=O)OCc1ccccc1 [Calpeptin]" value_observed=no
molecule="NCCc1ccc(S(=O)(=O)F)cc1 [Pefabloc= AEBSF, AEBSF]" value_observed=yes

The molecule identified as CC(C)C[C@H](NC(=O)[C@H]1O[C@@H]1C(=O)O)C(=O)NCCCCN=C(N)N [E-64] registered its p16^INK4a stabilization in mtm Lysis medium at no

Field p16^INK4a stabilization in mtm Lysis medium (entry CCOC(=O)[C@@H]1O[C@H]1C(=O)NC(CC(C)C)C(=O)N1CCN(Cc2ccc(OC)c(OC)c2OC)CC1.CCOC(=O)[C@@H]1O[C@H]1C(=O)NC(CC(C)C)C(=O)N1CCN(Cc2ccc(OC)c(OC)c2OC)CC1.O=S(=O)(O)O (stereo partly drawn) [NCO-700] ) reads no
